- MEASURED ON: Kir3.1/Kir3.4 (Homo sapiens, UniProt P48544+P48549)
- TEST DESCRIPTION: Activation of recombinant human GIRK1/4 expressed in Xenopus oocytes by two-electrode voltage clamp method
- Assay type: cell-based, Oocyte
pEC50: −log10 of the molar value.
METRIC: pEC50

Could you share which pEC50 value was measured for `C[C@@H]1O[C@@H](O[C@H]2[C@H](Oc3cc(O)c4c(c3)O[C@H](c3ccc(O)cc3)CC4=O)O[C@H](CO)[C@@H](O)[C@@H]2O)[C@H](O)[C@H](O)[C@H]1O` ?
< 4.00

* * *

- MEASURED ON: Kir3.1/Kir3.2 (Homo sapiens, UniProt P48051+P48549)
- Sequence (P48549 whole entry): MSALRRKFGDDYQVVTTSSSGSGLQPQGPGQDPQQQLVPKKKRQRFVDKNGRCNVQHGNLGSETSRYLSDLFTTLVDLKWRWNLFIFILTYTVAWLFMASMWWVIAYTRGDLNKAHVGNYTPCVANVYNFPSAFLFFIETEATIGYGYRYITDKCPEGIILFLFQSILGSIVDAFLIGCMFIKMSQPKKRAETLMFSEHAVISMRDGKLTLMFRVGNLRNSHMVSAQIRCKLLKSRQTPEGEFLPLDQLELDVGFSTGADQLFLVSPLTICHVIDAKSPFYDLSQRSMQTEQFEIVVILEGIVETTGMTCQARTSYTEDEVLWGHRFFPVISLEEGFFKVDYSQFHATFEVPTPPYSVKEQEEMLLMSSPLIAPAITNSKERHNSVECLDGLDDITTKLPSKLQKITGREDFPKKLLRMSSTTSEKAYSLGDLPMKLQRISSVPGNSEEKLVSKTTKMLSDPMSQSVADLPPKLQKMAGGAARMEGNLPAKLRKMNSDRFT
- Sequence (P48051 whole entry): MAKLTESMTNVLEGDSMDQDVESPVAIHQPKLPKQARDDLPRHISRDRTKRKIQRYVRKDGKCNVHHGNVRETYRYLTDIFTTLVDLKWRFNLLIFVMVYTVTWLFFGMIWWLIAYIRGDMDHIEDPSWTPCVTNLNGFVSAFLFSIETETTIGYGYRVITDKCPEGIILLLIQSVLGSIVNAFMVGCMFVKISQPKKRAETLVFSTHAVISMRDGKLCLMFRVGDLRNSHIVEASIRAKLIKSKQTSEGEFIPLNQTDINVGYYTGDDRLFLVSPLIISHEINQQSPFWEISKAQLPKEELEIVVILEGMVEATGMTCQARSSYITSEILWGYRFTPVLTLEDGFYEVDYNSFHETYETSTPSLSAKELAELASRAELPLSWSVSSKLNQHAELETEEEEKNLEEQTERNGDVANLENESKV
- TEST DESCRIPTION: Activation of GIRK1/2 (unknown origin) transfected in HEK293 cells after 4 mins by thallium flux-based fluorescence assay
- Format: cell-based
METRIC: pEC50
Entry type: numeric. Quantity: pEC50, the -log10 of concentration in molar units.

COc1ccc(NC(=O)Nc2ccc(C)c(S(=O)(=O)N(C)C)c2)cc1: 5.77
Cc1ccc(NC(=O)Nc2ccc(Cl)cc2)cc1S(=O)(=O)N(C)C: 5.48

Could you share which pEC50 value was measured for `Cc1ccc(NC(=O)Nc2ccc(C(F)(F)F)cc2)cc1S(=O)(=O)N(C)C` ?
5.82
